molecular target: T1, human CD71 extracellular domain (human, UniProt P02786 89-760); test: primary ELISA; also: test concentration or dose not given here
T1 construct: also called hCD71; human CD71-ECD
T1 sequence (P02786 89-760): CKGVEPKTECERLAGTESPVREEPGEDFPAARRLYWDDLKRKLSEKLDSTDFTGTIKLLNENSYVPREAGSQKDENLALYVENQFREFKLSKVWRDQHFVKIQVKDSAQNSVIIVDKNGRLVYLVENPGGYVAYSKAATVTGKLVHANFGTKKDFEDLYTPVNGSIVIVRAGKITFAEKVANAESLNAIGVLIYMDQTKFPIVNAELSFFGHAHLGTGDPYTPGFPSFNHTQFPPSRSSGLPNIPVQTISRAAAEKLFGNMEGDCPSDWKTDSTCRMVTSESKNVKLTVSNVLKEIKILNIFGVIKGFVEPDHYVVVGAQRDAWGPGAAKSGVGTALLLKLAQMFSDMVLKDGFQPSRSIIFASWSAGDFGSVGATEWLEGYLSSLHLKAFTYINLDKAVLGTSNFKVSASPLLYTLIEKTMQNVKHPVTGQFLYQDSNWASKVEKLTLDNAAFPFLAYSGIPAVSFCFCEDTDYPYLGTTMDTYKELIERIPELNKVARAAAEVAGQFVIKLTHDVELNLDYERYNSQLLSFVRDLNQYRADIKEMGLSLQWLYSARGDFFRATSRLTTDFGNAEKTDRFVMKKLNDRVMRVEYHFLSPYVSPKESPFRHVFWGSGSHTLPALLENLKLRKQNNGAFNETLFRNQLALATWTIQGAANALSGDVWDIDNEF
Endpoint: RLU (RLU)

[[record]]
binder = "CD71-binding FN3 domain of SEQ ID NO: 198 (designed binder) MSLPAPKNLVVSRVTEDSARLSWTAPDAAFDSFLIGYTEYSVYGEAIVLTVPGSERSYDLTGLKPGTEYTVWIMGVKGGIKSTPLSAISTT"
endpoint = "RLU"
readout_number = "3.62e+06"

[[record]]
binder = "CD71-binding FN3 domain of SEQ ID NO: 212 (designed binder) MSLPAPKNLVVSRVTEDSARLSWTAPDAAFDSFEIGYFENLYLGEAIVLTVPGSERYYDLTGLKPGTEYWVQIGGVKGGNWSAPLSAIFTT"
endpoint = "RLU"
readout_number = "2.82e+06"

[[record]]
binder = "CD71-binding FN3 domain of SEQ ID NO: 126 (designed binder) MSLPAPKNLVVSRVTEDSARLSWTAPDAVFDSFEIAYQELSLWGEAIVLTVPGSERSYDLTGLKPGTEYYVHIGGVKGGIWSSPLSAYFTT"
endpoint = "RLU"
readout_number = "3.13e+06"

